Values compiled from patent US20230000870A1.

Parameter: IC50. Scope: all listed entries.
- Assay System: CDK12 (aa686-1082)/Cyclin K complex (Homo sapiens, UniProt Q9NYV4)
- Construct: CDK12 (aa686-1082)/Cyclin K complex
- Sequence (Q9NYV4 686-1082): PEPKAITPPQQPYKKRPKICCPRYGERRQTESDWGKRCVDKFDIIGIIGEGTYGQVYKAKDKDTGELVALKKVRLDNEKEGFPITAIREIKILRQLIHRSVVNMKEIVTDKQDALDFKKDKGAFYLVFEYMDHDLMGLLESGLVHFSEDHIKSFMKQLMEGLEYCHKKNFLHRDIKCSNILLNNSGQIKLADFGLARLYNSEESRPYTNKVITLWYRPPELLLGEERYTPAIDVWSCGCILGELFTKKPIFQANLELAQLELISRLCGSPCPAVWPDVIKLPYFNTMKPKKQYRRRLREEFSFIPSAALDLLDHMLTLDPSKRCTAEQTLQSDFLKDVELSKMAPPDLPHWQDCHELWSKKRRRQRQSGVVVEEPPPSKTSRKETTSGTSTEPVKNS
- Sequence (O75909 whole entry partner, the tested form may be a part): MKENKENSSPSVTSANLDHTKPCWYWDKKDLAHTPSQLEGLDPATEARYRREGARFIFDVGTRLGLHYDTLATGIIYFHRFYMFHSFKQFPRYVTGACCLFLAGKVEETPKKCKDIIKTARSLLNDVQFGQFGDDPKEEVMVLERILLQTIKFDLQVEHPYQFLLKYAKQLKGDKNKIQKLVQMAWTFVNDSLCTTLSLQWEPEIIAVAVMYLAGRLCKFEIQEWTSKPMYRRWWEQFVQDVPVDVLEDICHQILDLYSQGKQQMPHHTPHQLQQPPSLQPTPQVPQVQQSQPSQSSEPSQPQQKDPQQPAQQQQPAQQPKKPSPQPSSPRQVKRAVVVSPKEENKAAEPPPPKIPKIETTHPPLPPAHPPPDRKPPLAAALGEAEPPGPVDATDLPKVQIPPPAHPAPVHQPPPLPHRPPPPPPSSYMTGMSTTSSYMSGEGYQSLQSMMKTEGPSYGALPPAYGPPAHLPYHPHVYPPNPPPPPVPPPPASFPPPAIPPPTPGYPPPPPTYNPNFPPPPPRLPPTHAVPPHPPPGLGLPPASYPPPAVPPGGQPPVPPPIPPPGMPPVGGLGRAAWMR
- Experiment: CDK12 kinase inhibition assay (Caliper/LabChip EZ Reader)
- Settings: CDK12 (aa686-1082)/Cyclin K 50 nM, ATP 2 mM, 3 hr at 27° C.

N#Cc1ccc2c(-c3nc(N[C@@H]4CNC[C@H](O)C4)ncc3C(F)(F)F)c[nH]c2c1 [Compound 370]	200 to 5000 nM
FC(F)(F)c1cnc(NC2CCCNC2)nc1-c1c[nH]c2c(Cl)cccc12 (stereo not shown) [Compound 167]	20 to 200 nM
Cn1cc(-c2ccc3c(-c4nc(NC5CCCNC5)ncc4C(F)(F)F)c[nH]c3c2)cc1C#N (stereo not shown) [Compound 225]	200 to 5000 nM
CC1(O)CCN(C(=O)c2ccc3c(-c4nc(N[C@H]5CCCNC5)ncc4C(F)(F)F)c[nH]c3c2)CC1 [Compound 282]	200 to 5000 nM
CP(C)(=O)c1ccc2c(-c3nc(NC4CCCNC4)ncc3C(F)(F)F)c[nH]c2c1 (stereo not shown) [Compound 354]	200 to 5000 nM

## Task # lookup: IC50 of CCC(=O)NC1CNCC(Nc2ncc(C(F)(F)F)c(-c3c[nH]c4c(S(C)(=O)=O)cccc34)n2)C1 (stereo not shown) [Compound 259]
## Result 200 to 5000 nM

## Task Can you handle Cc1cccc2c(-c3nc(NC4CCCNC4)ncc3F)c[nH]c12 (stereo not shown) [Compound 138] next?
## Result 200 to 5000 nM

## Task Can you handle CC1(O)CCN(S(=O)(=O)c2ccc3c(-c4nc(NC5CCCNC5)ncc4C(F)(F)F)c[nH]c3c2)C1 (stereo not shown) [Compound 366] next?
## Result 200 to 5000 nM

## Task Can you handle Fc1cccc2c(-c3nc(NC4CCCNC4)ncc3Cl)c[nH]c12 (stereo not shown) [Compound 107] next?
## Result 20 to 200 nM

## Task Can you handle FC(F)(F)c1cnc(NC2CCCNC2)nc1-c1c[nH]c2cc(-c3cnccn3)ccc12 (stereo not shown) [Compound 328] next?
## Result 200 to 5000 nM

## Task Can you handle FC(F)(F)c1cnc(N[C@H]2CCCNC2)nc1-c1c[nH]c2cc(-c3cccc(Oc4ccccc4)c3)ccc12 [Compound 341] next?
## Result ≥ 5000 nM

## Task Can you handle FC(F)(F)c1cnc(NC2CCCNC2)nc1-c1c[nH]c2c(-c3ccnnc3)cccc12 (stereo not shown) [Compound 180] next?
## Result 20 to 200 nM

## Task Can you handle O=C(c1ccc2c(-c3nc(NC4CCCNC4)ncc3C(F)(F)F)c[nH]c2c1)N1CCCC1 (stereo not shown) [Compound 278] next?
## Result 200 to 5000 nM

## Task Can you handle CC(=O)NCc1cccc(-c2ccc3c(-c4nc(NC5CCCNC5)ncc4C(F)(F)F)c[nH]c3c2)c1 (stereo not shown) [Compound 338] next?
## Result 200 to 5000 nM

## Task Can you handle CCC1CCC(Nc2ncc(C(F)(F)F)c(-c3c[nH]c4ccccc34)n2)CN1 (stereo not shown) [Compound 217] next?
## Result 200 to 5000 nM

## Task Can you handle FC(F)(F)c1cnc(NC2CCCNC2)nc1-c1c[nH]c2c(-c3ccncc3)cccc12 (stereo not shown) [Compound 162] next?
## Result 200 to 5000 nM

###

- Assay System: CDK9/Cyclin T1 complex (Homo sapiens, UniProt P50750)
- Sequence (P50750 whole entry): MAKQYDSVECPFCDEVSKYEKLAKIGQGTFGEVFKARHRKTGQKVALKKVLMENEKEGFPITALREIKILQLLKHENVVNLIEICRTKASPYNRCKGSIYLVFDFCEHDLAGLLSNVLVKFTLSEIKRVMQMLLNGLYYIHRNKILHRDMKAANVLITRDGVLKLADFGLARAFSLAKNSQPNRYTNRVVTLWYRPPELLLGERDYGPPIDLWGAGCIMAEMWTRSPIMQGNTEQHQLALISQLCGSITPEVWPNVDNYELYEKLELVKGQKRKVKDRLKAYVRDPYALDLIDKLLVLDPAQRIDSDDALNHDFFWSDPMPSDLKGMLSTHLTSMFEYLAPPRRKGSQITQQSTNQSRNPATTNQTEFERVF
- Sequence (O60563 whole entry partner): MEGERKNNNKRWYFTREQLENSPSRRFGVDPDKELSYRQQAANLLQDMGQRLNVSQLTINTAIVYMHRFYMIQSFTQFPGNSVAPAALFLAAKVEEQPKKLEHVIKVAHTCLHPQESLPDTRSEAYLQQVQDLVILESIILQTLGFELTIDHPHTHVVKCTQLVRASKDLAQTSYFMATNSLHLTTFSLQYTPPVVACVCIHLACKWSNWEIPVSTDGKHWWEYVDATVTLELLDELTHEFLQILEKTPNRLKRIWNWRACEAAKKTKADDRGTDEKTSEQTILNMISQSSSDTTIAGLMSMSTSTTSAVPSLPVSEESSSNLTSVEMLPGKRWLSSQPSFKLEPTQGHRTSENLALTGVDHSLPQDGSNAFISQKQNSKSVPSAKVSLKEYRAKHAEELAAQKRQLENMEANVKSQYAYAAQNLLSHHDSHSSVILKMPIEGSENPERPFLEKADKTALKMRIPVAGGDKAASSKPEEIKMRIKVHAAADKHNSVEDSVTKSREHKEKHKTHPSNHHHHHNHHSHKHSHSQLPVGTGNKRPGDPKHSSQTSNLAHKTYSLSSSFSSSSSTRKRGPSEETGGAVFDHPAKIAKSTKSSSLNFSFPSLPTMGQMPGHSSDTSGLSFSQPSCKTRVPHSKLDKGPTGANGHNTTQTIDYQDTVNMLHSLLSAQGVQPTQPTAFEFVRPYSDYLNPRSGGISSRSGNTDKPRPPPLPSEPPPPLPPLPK
- Experiment: CDK9 kinase inhibition assay (Caliper/LabChip EZ Reader)
- Settings: CDK9/Cyclin T1 8 nM, ATP 2 mM, 15 min at 27° C.
- Procedure: Compounds of the invention were assayed for inhibition of CDK7, CDK9, CDK12, and CDK2 activity at Biortus Biosciences (Jiangyin, Jiangsu Province, P.R. of China) using kinase assays for each CDK developed with a Caliper/LabChip EZ Reader (Perkin Elmer, Waltham, Mass.). […]
pIC50: −log10 of the molar value.
Parameter: pIC50. Scope: all listed entries.

Solved entries (count: 3):
OC1CCC(c2cccc3c(-c4nc(NC5CCCNC5)ncc4C(F)(F)F)c[nH]c23)CC1 (stereo not shown) [Compound 207]	5.30 to 6.70
CNC(=O)c1cccc2c(-c3nc(NC4CCCNC4)ncc3C(F)(F)F)cn(COC)c12 (stereo not shown)	≤ 5.30
N#Cc1ccc2c(-c3nc(N[C@@H]4CNCC[C@H]4F)ncc3C(F)(F)F)c[nH]c2c1	5.30 to 6.70

Please turn your attention to the following entry.
## Task # lookup: pIC50 of Fc1ccc2[nH]cc(-c3nc(NC4CCCNC4)ncc3Cl)c2c1 (stereo not shown)
## Result 5.30 to 6.70

###

Parameter: pIC50. Scope: all listed entries.
- Assay System: CDK2/Cyclin E1 complex (Homo sapiens, UniProt P24941)
- Experiment: CDK2 kinase inhibition assay (Caliper/LabChip EZ Reader)
- Settings: CDK2/Cyclin E1 0.5 nM, ATP 2 mM, 35 min at 27° C.
pIC50: −log10 of the molar value.

CN(C)S(=O)(=O)c1cccc2c(-c3nc(NC4CCCNC4)ncc3C(F)(F)F)c[nH]c12 (centres unmarked)	5.30 to 6.70
OC1CNCC(Nc2ncc(C(F)(F)F)c(-c3c[nH]c4ccccc34)n2)C1 (centres unmarked)	5.30 to 6.70
CCC1(Nc2ncc(Cl)c(-c3c[nH]c4ccccc34)n2)CCCNC1 (centres unmarked)	≤ 5.30
CC(O)c1cnc(NC2CCCNC2)nc1-c1c[nH]c2ccccc12 (centres unmarked) [Compound 234]	≤ 5.30
C=Cc1cnc(NC2CCCNC2)nc1-c1c[nH]c2ccccc12 (centres unmarked)	5.30 to 6.70

Please turn your attention to the following entry.
## Task # lookup: pIC50 of CCCc1cnc(N[C@H]2CCCNC2)nc1-c1c[nH]c2c(S(C)(=O)=O)c(C#N)ccc12
## Result ≤ 5.30

###

Parameter: IC50. Scope: all listed entries.
- Assay System: CDK12 (aa686-1082)/Cyclin K complex (Homo sapiens)
- Construct: CDK12 (aa686-1082)/Cyclin K complex
- Experiment: CDK12 kinase inhibition assay (Caliper/LabChip EZ Reader)
- Settings: CDK12 (aa686-1082)/Cyclin K 50 nM, ATP 2 mM, 3 hr at 27° C.
- Protocol: Compounds of the invention were assayed for inhibition of CDK7, CDK9, CDK12, and CDK2 activity at Biortus Biosciences (Jiangyin, Jiangsu Province, P.R. of China) using kinase assays for each CDK developed with a Caliper/LabChip EZ Reader (Perkin Elmer, Waltham, Mass.). […]

Solved entries (count: 6):
OC1CC=C(c2cccc3c(-c4nc(NC5CCCNC5)ncc4C(F)(F)F)c[nH]c23)CC1 (centres unmarked) [Compound 198]	0.2 to 5 µM
FC(F)(F)c1cnc(NC2CCCNC2)nc1-c1c[nH]c2c(Br)cccc12 (centres unmarked) [Compound 163]	0.2 to 5 µM
N#Cc1ccc2c(-c3nc(N[C@H]4CCC5(CCC5)NC4)ncc3C(F)(F)F)c[nH]c2c1 [Compound 378]	≥ 5 µM
CCc1cnc(NC2CCCNC2)nc1-c1c[nH]c2nc(C#N)ccc12 (centres unmarked) [Compound 287]	≥ 5 µM
O=C(O)c1ccc2c(-c3nc(NC4CCCNC4)ncc3C(F)(F)F)c[nH]c2c1 (centres unmarked) [Compound 306]	0.2 to 5 µM
FC(F)(F)c1cnc(N[C@H]2CCCNC2)nc1-c1c[nH]c2cc(-n3ccnc3)ccc12 [Compound 248]	0.2 to 5 µM

## Task # lookup: IC50 of O=C(c1cccc(-c2ccc3c(-c4nc(NC5CCCNC5)ncc4C(F)(F)F)c[nH]c3c2)c1)N1CCCC1 (centres unmarked) [Compound 340]
## Result 0.2 to 5 µM

## Task Can you handle Nc1ncc2cccc(-c3ccc4c(-c5nc(NC6CCCNC6)ncc5C(F)(F)F)c[nH]c4c3)c2n1 (centres unmarked) [Compound 322] next?
## Result 0.2 to 5 µM

###

- Assay System: CDK7/Cyclin H/MAT1 complex (Homo sapiens, UniProt P50613)
- Sequence (P50613 whole entry): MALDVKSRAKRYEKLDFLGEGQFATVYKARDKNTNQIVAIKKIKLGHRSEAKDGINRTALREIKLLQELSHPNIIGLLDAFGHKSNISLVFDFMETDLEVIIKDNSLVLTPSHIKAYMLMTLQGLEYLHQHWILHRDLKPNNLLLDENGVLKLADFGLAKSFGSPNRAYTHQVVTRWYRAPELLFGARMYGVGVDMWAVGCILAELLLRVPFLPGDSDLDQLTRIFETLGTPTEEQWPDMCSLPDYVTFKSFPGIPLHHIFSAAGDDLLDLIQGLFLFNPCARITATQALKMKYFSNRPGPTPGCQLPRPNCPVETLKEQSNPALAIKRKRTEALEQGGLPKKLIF
- Sequence (P51946 whole entry partner): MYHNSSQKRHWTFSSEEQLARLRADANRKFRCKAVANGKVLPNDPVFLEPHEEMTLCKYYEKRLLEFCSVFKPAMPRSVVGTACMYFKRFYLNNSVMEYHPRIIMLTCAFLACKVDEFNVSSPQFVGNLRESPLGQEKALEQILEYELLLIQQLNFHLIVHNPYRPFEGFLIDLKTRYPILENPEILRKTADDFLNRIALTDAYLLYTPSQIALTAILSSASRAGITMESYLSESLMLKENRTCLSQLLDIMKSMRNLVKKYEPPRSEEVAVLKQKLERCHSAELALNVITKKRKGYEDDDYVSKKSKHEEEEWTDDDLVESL
- Sequence (P51948 whole entry partner): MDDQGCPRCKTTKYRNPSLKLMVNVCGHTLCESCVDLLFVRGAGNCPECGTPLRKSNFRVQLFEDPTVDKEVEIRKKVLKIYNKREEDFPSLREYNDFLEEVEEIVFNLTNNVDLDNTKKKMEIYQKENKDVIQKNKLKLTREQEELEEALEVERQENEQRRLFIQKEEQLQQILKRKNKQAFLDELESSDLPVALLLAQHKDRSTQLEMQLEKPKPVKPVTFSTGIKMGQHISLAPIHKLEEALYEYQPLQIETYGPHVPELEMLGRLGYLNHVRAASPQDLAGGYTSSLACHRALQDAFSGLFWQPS
- Experiment: CDK7 kinase inhibition assay (Caliper/LabChip EZ Reader)
- Settings: CDK7/Cyclin H/MAT1 6 nM, ATP 2 mM, 35 min at 27° C.
- Description: Compounds of the invention were assayed for inhibition of CDK7, CDK9, CDK12, and CDK2 activity at Biortus Biosciences (Jiangyin, Jiangsu Province, P.R. of China) using kinase assays for each CDK developed with a Caliper/LabChip EZ Reader (Perkin Elmer, Waltham, Mass.). […]
Measure: IC50

Solved entries (count: 4):
FC(F)(F)c1cnc(N[C@H]2CCCNC2)nc1-c1c[nH]c2cc(-c3cccc(Oc4ccccc4)c3)ccc12	0.2 to 5 µM
N#Cc1ccc2c(-c3nc(NC4CCCNC4)ncc3Cl)c[nH]c2c1 (centres unmarked)	< 0.02 µM
CCC1CCC(Nc2ncc(C(F)(F)F)c(-c3c[nH]c4ccccc34)n2)CN1 (centres unmarked) [Compound 217]	< 0.02 µM
N#Cc1ccc2c(-c3nc(N[C@H]4CCC5(CCC5)NC4)ncc3C(F)(F)F)c[nH]c2c1	0.02 to 0.2 µM

## Task Give CDK7/Cyclin H/MAT1 complex (Homo sapiens, UniProt P50613) IC50 for CNS(=O)(=O)c1ccc2c(-c3nc(N[C@H]4CCCNC4)ncc3C(F)(F)F)c[nH]c2c1
## Result < 0.02 µM

## Task Can you handle FC(F)(F)c1cnc(NC2CCCNC2)nc1-c1c[nH]c2c(-c3ccncc3)cccc12 (centres unmarked) next?
## Result 0.02 to 0.2 µM

## Task Can you handle FC(F)(F)c1cnc(N[C@H]2CCCNC2)nc1-c1c[nH]c2cc(-c3ccc4ccncc4c3)ccc12 next?
## Result 0.02 to 0.2 µM

## Task Can you handle CCN1CC(Nc2ncc(C(F)(F)F)c(-c3c[nH]c4cc(S(C)(=O)=O)ccc34)n2)CC(C)(C)C1 (centres unmarked) next?
## Result 0.02 to 0.2 µM
